Just for reference, ChEMBL document CHEMBL1201862 is where these values come from.

Tested on: RXF 393
experimental.details: NCI tumour cell line growth inhibition, 48 h
Activity calls are given as the source filed them. Cut-off read from the data, not from the text of the source: active = GI50 up to about 1.1 µM and inactive = higher.
Catalogue of GI50 readings, one per entry.

Task item: Give the measured GI50 of C[C@@H](NC(=O)c1ccc(CNC(=O)/C=C/c2cccc(Oc3ccccc3)c2)cc1)c1ccccc1 .
Reply: 2.51 µM (inactive)

Task item: Try this compound next: O=C(NCCNCCNC(=O)C(F)(F)F)C(F)(F)F
Reply: > 100 µM (inactive)

---

Catalogue of GI50 readings, one per entry.
System: NCI-H23
experimental.details: NCI tumour cell line growth inhibition, 48 h
Activity calls are given as the source filed them. Rule as the data show it: active = GI50 up to about 1.1 µM and inactive = higher.

Use the examples below as a reference point.
Cc1ccc(-c2cc(-c3ccco3)c(C#N)c(=S)[nH]2)cc1 = 29.9 µM (inactive)
CCOC(=O)c1sc2c(C(=O)OCC)n3cc(C)cc(C)c3c2c1O = > 100 µM (inactive)

Task item: Give the measured GI50 of CC[C@]12CCCN3CCc4c(n(c5ccccc45)C(=O)C1)[C@@H]32 .
Reply: 13.7 µM (inactive)
